B1: IKZF1 (parent)
chain: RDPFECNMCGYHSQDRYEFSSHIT

Variants of: B1
Assay: protein stability index of a GFP-peptide fusion (GPS, HEK-293T) (PSI 1-6); higher = more stable;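 note: lentivirally expressed fusions sorted by FACS into six bins by GFP to DsRed ratio, PSI derived from sequencing read proportions per bin multiplied by bin number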
Conditions: c terminus: a fixed tail appended
# label = criterion met if protein stability index >= 2 else criterion not met

> print(dat)
    variant              group
 1     G10M  criterion not met
 2      R1Y  criterion not met
 3     H22P      criterion met
 4      C9G      criterion met
 5     S13I  criterion not met
 6      M8Y      criterion met
 7      F4D      criterion met
 8     I23E      criterion met
 9     I23T      criterion met
10     Y17F      criterion met
11      C6N      criterion met
12      E5P  criterion not met
13      R1I      criterion met
14     I23M      criterion met
15      R1M      criterion met
16      E5G  criterion not met
